Tested on: ATP;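 further: ATP exposure 15 min at 22 °C before imaging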
Assay Summary: switch fluorescence ratio, 500 uM ATP over buffer (Cy3 cluster intensity, sum of 5 cycles each) (fold (ratio)); higher = stronger signal-on switching upon ATP binding; sequences stand for … in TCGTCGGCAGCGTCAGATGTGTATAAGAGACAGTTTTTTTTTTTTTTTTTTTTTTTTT…TC
Recorded Conditions: aptamer strand: ATP DNA aptamer (quencher-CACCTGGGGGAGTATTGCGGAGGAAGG + anchor), 100 nM annealed; ATP concentration: 500 uM
Here the recorded switch fluorescence ratio is given for each entry.
Reply briefly: the number, and no unit.

-- ask Quick one: switch fluorescence ratio for "TATGTACGTG" ?
-- reply 1.02

-- ask Quick one: switch fluorescence ratio for "ATTGTTTGCG" ?
-- reply 0.966

-- ask Quick one: switch fluorescence ratio for "GATGGCGGGA" ?
-- reply 1.02

--- query ---
-- ask Quick one: switch fluorescence ratio for "TTTTAACACT" ?
-- reply 1.04

* * *

Here the recorded switch fluorescence ratio is given for each entry.
Test system: ATP;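 further: ATP exposure 15 min at 22 °C before imaging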
Assay Summary: switch fluorescence ratio, 500 uM ATP over buffer (Cy3 cluster intensity, sum of 5 cycles each) (fold (ratio)); higher = stronger signal-on switching upon ATP binding; sequences stand for … in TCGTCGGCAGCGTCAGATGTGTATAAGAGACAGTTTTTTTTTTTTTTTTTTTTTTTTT…TC
Recorded Conditions: aptamer strand: ATP DNA aptamer (quencher-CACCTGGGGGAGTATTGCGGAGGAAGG + anchor), 100 nM annealed; ATP concentration: 500 uM
Reply briefly: the number, and no unit.

Illustrative cases are given below, each with its answer.
-- ask Quick one: switch fluorescence ratio for "GGGTCTATCG" ?
-- reply 0.989

-- ask Quick one: switch fluorescence ratio for "GGGGGACTAG" ?
-- reply 1.02

-- ask Quick one: switch fluorescence ratio for "GGCGATTGGA" ?
-- reply 1

-- ask Quick one: switch fluorescence ratio for "GCTAAAGGCA" ?
-- reply 0.986

-- ask Quick one: switch fluorescence ratio for "TTTAAATGCG" ?
-- reply 0.985

-- ask Quick one: switch fluorescence ratio for "CGTTTTCTCG" ?
-- reply 0.994

-- ask Quick one: switch fluorescence ratio for "TGAGTGTAGA" ?
-- reply 1.07

-- ask Quick one: switch fluorescence ratio for "TAGGGGTA" ?
-- reply 1.01

---
-- ask Quick one: switch fluorescence ratio for "ATGTCCGAGG" ?
-- reply 1.03

-- ask Quick one: switch fluorescence ratio for "CGTGGGCATT" ?
-- reply 1.01

-- ask Quick one: switch fluorescence ratio for "TGTTACGGTG" ?
-- reply 1

-- ask Quick one: switch fluorescence ratio for "TGATCCAGGG" ?
-- reply 0.987

-- ask Quick one: switch fluorescence ratio for "TTTACTTTAT" ?
-- reply 1.06

-- ask Quick one: switch fluorescence ratio for "AATTTGGCTG" ?
-- reply 1.22

-- ask Quick one: switch fluorescence ratio for "GAGGATTAGC" ?
-- reply 0.99

-- ask Quick one: switch fluorescence ratio for "TTAATGGGAT" ?
-- reply 0.987

-- ask Quick one: switch fluorescence ratio for "TGGGTGTTGC" ?
-- reply 0.941

-- ask Quick one: switch fluorescence ratio for "GGGATAAGGC" ?
-- reply 1.08

-- ask Quick one: switch fluorescence ratio for "CGCTTATCAT" ?
-- reply 0.98

-- ask Quick one: switch fluorescence ratio for "ACGGAAAGTT" ?
-- reply 0.988

* * *

Test system: ATP;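 further: ATP exposure 15 min at 22 °C before imaging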
Assay Summary: switch fluorescence ratio, 500 uM ATP over buffer (Cy3 cluster intensity, sum of 5 cycles each) (fold (ratio)); higher = stronger signal-on switching upon ATP binding; sequences stand for … in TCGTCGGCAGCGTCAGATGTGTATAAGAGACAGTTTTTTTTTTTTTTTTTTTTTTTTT…TC
Recorded Conditions: aptamer strand: ATP DNA aptamer (quencher-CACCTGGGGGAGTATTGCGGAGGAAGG + anchor), 100 nM annealed; ATP concentration: 500 uM
Here the recorded switch fluorescence ratio is given for each entry.
Reply briefly: the number, and no unit.

-- ask Quick one: switch fluorescence ratio for "CAATGCGGAG" ?
-- reply 1

-- ask Quick one: switch fluorescence ratio for "TATTATATGG" ?
-- reply 1.03

-- ask Quick one: switch fluorescence ratio for "TGACGGAAGG" ?
-- reply 1

-- ask Quick one: switch fluorescence ratio for "AGTCACGGGT" ?
-- reply 1.03

-- ask Quick one: switch fluorescence ratio for "CCAGGTATGG" ?
-- reply 1.05

* * *

Tested on: ATP;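 further: ATP exposure 15 min at 22 °C before imaging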
Assay Summary: switch fluorescence ratio, 500 uM ATP over buffer (Cy3 cluster intensity, sum of 5 cycles each) (fold (ratio)); higher = stronger signal-on switching upon ATP binding; sequences stand for … in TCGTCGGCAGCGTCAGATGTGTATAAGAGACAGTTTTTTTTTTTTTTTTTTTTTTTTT…TC
Recorded Conditions: aptamer strand: ATP DNA aptamer (quencher-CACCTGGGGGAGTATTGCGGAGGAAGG + anchor), 100 nM annealed; ATP concentration: 500 uM
Here the recorded switch fluorescence ratio is given for each entry.
Reply briefly: the number, and no unit.

-- ask Quick one: switch fluorescence ratio for "TGACTTGCGT" ?
-- reply 0.971

-- ask Quick one: switch fluorescence ratio for "TGTCGTTTTC" ?
-- reply 0.98

-- ask Quick one: switch fluorescence ratio for "TTTACCGGCG" ?
-- reply 1.02

-- ask Quick one: switch fluorescence ratio for "TGATGTGATG" ?
-- reply 0.995

-- ask Quick one: switch fluorescence ratio for "TGGAGTTAGA" ?
-- reply 0.996

---
-- ask Quick one: switch fluorescence ratio for "GGCGGGGAAA" ?
-- reply 0.981

-- ask Quick one: switch fluorescence ratio for "CAAAGGGGGA" ?
-- reply 1

-- ask Quick one: switch fluorescence ratio for "GGCTATTGGA" ?
-- reply 0.971

-- ask Quick one: switch fluorescence ratio for "TTCAGTTTTA" ?
-- reply 1.02

-- ask Quick one: switch fluorescence ratio for "TTGGGTATAG" ?
-- reply 1.02

* * *

Test system: ATP;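 further: ATP exposure 15 min at 22 °C before imaging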
Assay Summary: switch fluorescence ratio, 500 uM ATP over buffer (Cy3 cluster intensity, sum of 5 cycles each) (fold (ratio)); higher = stronger signal-on switching upon ATP binding; sequences stand for … in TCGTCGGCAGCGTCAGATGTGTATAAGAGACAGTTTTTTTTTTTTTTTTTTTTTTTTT…TC
Recorded Conditions: aptamer strand: ATP DNA aptamer (quencher-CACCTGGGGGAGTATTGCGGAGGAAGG + anchor), 100 nM annealed; ATP concentration: 500 uM
Reported Metric: switch fluorescence ratio

-- ask Form: Entry = "GTGATCATCG" | System = ATP | switch fluorescence ratio = ____;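 further: ATP exposure 15 min at 22 °C before imaging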
-- reply 1.01

-- ask Form: Entry = "TGTGGTCGGT" | System = ATP | switch fluorescence ratio = ____;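 further: ATP exposure 15 min at 22 °C before imaging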
-- reply 1.02

-- ask Form: Entry = "GTAGCGGGGT" | System = ATP | switch fluorescence ratio = ____;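 further: ATP exposure 15 min at 22 °C before imaging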
-- reply 1.01

-- ask Form: Entry = "TCTTGGGGGC" | System = ATP | switch fluorescence ratio = ____;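 further: ATP exposure 15 min at 22 °C before imaging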
-- reply 1.01

-- ask Form: Entry = "AGCTGGAATA" | System = ATP | switch fluorescence ratio = ____;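 further: ATP exposure 15 min at 22 °C before imaging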
-- reply 1

-- ask Form: Entry = "GGCGGGGGAC" | System = ATP | switch fluorescence ratio = ____;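 further: ATP exposure 15 min at 22 °C before imaging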
-- reply 0.987

* * *

Here the recorded switch fluorescence ratio is given for each entry.
Test system: ATP;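 further: ATP exposure 15 min at 22 °C before imaging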
Assay Summary: switch fluorescence ratio, 500 uM ATP over buffer (Cy3 cluster intensity, sum of 5 cycles each) (fold (ratio)); higher = stronger signal-on switching upon ATP binding; sequences stand for … in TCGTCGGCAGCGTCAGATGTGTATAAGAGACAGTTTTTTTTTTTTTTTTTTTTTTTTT…TC
Recorded Conditions: aptamer strand: ATP DNA aptamer (quencher-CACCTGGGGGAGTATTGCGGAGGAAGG + anchor), 100 nM annealed; ATP concentration: 500 uM
Reply briefly: the number, and no unit.

-- ask Quick one: switch fluorescence ratio for "AGTAAAGATT" ?
-- reply 1

-- ask Quick one: switch fluorescence ratio for "TGAGTGGACC" ?
-- reply 0.992

-- ask Quick one: switch fluorescence ratio for "AAAACCAGTA" ?
-- reply 1.01

-- ask Quick one: switch fluorescence ratio for "CATTGCATTT" ?
-- reply 1.3

-- ask Quick one: switch fluorescence ratio for "GGTGGTTTGG" ?
-- reply 1.02

---
-- ask Quick one: switch fluorescence ratio for "TGATAGCGGA" ?
-- reply 1.03

-- ask Quick one: switch fluorescence ratio for "ACTCCAGGAG" ?
-- reply 1.06

-- ask Quick one: switch fluorescence ratio for "TACATTATAG" ?
-- reply 1.01

-- ask Quick one: switch fluorescence ratio for "CAAAATATAT" ?
-- reply 1.06

-- ask Quick one: switch fluorescence ratio for "AGAAAAGGTG" ?
-- reply 1.19

-- ask Quick one: switch fluorescence ratio for "TTTAAAACGC" ?
-- reply 1.01

-- ask Quick one: switch fluorescence ratio for "ATTCGTAGTG" ?
-- reply 1

-- ask Quick one: switch fluorescence ratio for "TTTCCGAGGA" ?
-- reply 1.03

-- ask Quick one: switch fluorescence ratio for "GGGTGTGCCA" ?
-- reply 1

-- ask Quick one: switch fluorescence ratio for "CACCTCAGAT" ?
-- reply 1.05

-- ask Quick one: switch fluorescence ratio for "ATCGAAGAGG" ?
-- reply 0.995

-- ask Quick one: switch fluorescence ratio for "GATTGGCTGT" ?
-- reply 0.966

-- ask Quick one: switch fluorescence ratio for "ATTATGGCGC" ?
-- reply 0.967

-- ask Quick one: switch fluorescence ratio for "AGTAGTGAGG" ?
-- reply 0.979

-- ask Quick one: switch fluorescence ratio for "CGGTGGGGT" ?
-- reply 1.03

-- ask Quick one: switch fluorescence ratio for "TCAGGTAGTG" ?
-- reply 0.988
